# System: Escherichia coli TOP10
# test-method-notes: shrunken log2 fold change of peptide-encoding DNA abundance (4.5 h post-induction vs induction); higher = less antimicrobial activity (less host growth inhibition)
# measurement-parameters: time post-induction: 4.5 h; library: site-saturation at positions 5, 18, 19, 20
quantity-kind: shrunken log2 fold change

| residue-sequence | data-value |
| --- | --- |
| RRIRFRPPRLPRPRPRPTEFPRP | -0.217 |
| RRIRVRPPRLPRPRPRPLIGPRP | 0.0681 |
| RRIRYRPPRLPRPRPRPSHDPRP | -0.916 |
| RRIRHRPPRLPRPRPRPVDCPRP | -0.0119 |
| RRIRTRPPRLPRPRPRPHMLPRP | -0.389 |
| RRIRMRPPRLPRPRPRPLEGPRP | 0.109 |
| RRIRVRPPRLPRPRPRPYHEPRP | -0.159 |
| RRIRIRPPRLPRPRPRPKGTPRP | 0.0146 |
| RRIRVRPPRLPRPRPRPPSYPRP | 0.00807 |
| RRIRKRPPRLPRPRPRPLILPRP | -0.265 |
| RRIRKRPPRLPRPRPRPCVTPRP | 0.0632 |
| RRIRSRPPRLPRPRPRPYQNPRP | -0.511 |
| RRIRYRPPRLPRPRPRPDHDPRP | -0.133 |
| RRIRPRPPRLPRPRPRPSVKPRP | -0.277 |
| RRIRKRPPRLPRPRPRPWFWPRP | 0.442 |
| RRIRLRPPRLPRPRPRPWPAPRP | 0.0194 |
| RRIRNRPPRLPRPRPRPWCLPRP | -0.472 |
| RRIRSRPPRLPRPRPRPWQAPRP | 0.214 |
| RRIRCRPPRLPRPRPRPLVTPRP | -0.195 |
| RRIRVRPPRLPRPRPRPIKPPRP | -0.15 |
| RRIRYRPPRLPRPRPRPMSTPRP | -0.0213 |
| RRIRNRPPRLPRPRPRPMLGPRP | 0.0259 |
| RRIRLRPPRLPRPRPRPMFEPRP | -0.00818 |
| RRIRVRPPRLPRPRPRPVQWPRP | -0.0327 |
| RRIRGRPPRLPRPRPRPYIVPRP | 0.0237 |
| RRIRPRPPRLPRPRPRPRDCPRP | 0.277 |
| RRIRQRPPRLPRPRPRPEMPPRP | 0.188 |
| RRIRCRPPRLPRPRPRPTCWPRP | 0.15 |
| RRIRWRPPRLPRPRPRPHTLPRP | -0.325 |
| RRIRLRPPRLPRPRPRPVVKPRP | -0.166 |
| RRIRMRPPRLPRPRPRPCWVPRP | 0.827 |
| RRIRTRPPRLPRPRPRPHWYPRP | -0.135 |

----------
Measured shrunken log2 fold change, listed per entry for reference.
# Tested on: Escherichia coli TOP10
# test-method-notes: shrunken log2 fold change of peptide-encoding DNA abundance (4.5 h post-induction vs induction); higher = less antimicrobial activity (less host growth inhibition)
# measurement-parameters: time post-induction: 4.5 h; library: site-saturation at positions 5, 18, 19, 20

| residue-sequence | shrunken log2 fold change |
| --- | --- |
| RRIRKRPPRLPRPRPRPTIQPRP | -0.0129 |
| RRIRNRPPRLPRPRPRPEGSPRP | -0.0385 |
| RRIRPRPPRLPRPRPRPCKTPRP | 0.106 |
| RRIRVRPPRLPRPRPRPREIPRP | 0.087 |
| RRIRMRPPRLPRPRPRPEESPRP | 0.113 |
| RRIRLRPPRLPRPRPRPGETPRP | -0.0544 |
| RRIRVRPPRLPRPRPRPHLYPRP | -0.309 |
| RRIRARPPRLPRPRPRPWWAPRP | 0.289 |
| RRIRSRPPRLPRPRPRPYWNPRP | 0.503 |
| RRIRIRPPRLPRPRPRPNPSPRP | 0.0641 |
| RRIRVRPPRLPRPRPRPGWEPRP | 0.123 |
| RRIRARPPRLPRPRPRPLNWPRP | 0.245 |
| RRIRMRPPRLPRPRPRPIMQPRP | 0.0343 |
| RRIRIRPPRLPRPRPRPGSFPRP | -0.0206 |
| RRIRYRPPRLPRPRPRPETEPRP | 0.0184 |
| RRIRDRPPRLPRPRPRPSGNPRP | 0.499 |
| RRIRERPPRLPRPRPRPIFIPRP | -0.508 |
| RRIRQRPPRLPRPRPRPGTMPRP | 0.00897 |
| RRIRWRPPRLPRPRPRPIFRPRP | 0.0199 |
| RRIRCRPPRLPRPRPRPCGPPRP | -0.104 |
| RRIRQRPPRLPRPRPRPGDQPRP | -0.0566 |
| RRIRQRPPRLPRPRPRPENTPRP | -0.387 |
| RRIRTRPPRLPRPRPRPAVQPRP | 0.0481 |
| RRIRIRPPRLPRPRPRPRNRPRP | -0.125 |
| RRIRNRPPRLPRPRPRPYPPPRP | -0.671 |
| RRIRIRPPRLPRPRPRPLDNPRP | 0.0097 |
| RRIRARPPRLPRPRPRPMFAPRP | 0.52 |
| RRIRARPPRLPRPRPRPSPDPRP | 0.553 |
| RRIRRRPPRLPRPRPRPMNYPRP | -0.0341 |
| RRIRKRPPRLPRPRPRPHFEPRP | 0.101 |
| RRIRHRPPRLPRPRPRPGFVPRP | 0.607 |
| RRIRKRPPRLPRPRPRPGPSPRP | 2.27 |

----------
# Tested on: Escherichia coli TOP10
# test-method-notes: shrunken log2 fold change of peptide-encoding DNA abundance (4.5 h post-induction vs induction); higher = less antimicrobial activity (less host growth inhibition)
# measurement-parameters: time post-induction: 4.5 h; library: site-saturation at positions 5, 18, 19, 20
Class field: derived from shrunken log2 fold change; ranges c1 = under -0.1, c2 = from -0.1 up to 0.06, c3 = 0.06 and over

| residue-sequence | label |
| --- | --- |
| RRIRDRPPRLPRPRPRPMCDPRP | c3 |
| RRIRYRPPRLPRPRPRPNRKPRP | c1 |
| RRIRGRPPRLPRPRPRPVTPPRP | c3 |
| RRIRSRPPRLPRPRPRPYISPRP | c2 |
| RRIRMRPPRLPRPRPRPMCIPRP | c1 |
| RRIRYRPPRLPRPRPRPASEPRP | c2 |
| RRIRIRPPRLPRPRPRPTSDPRP | c1 |
| RRIRYRPPRLPRPRPRPADPPRP | c2 |
| RRIRTRPPRLPRPRPRPERFPRP | c2 |
| RRIRIRPPRLPRPRPRPDIMPRP | c1 |
| RRIRARPPRLPRPRPRPMHQPRP | c3 |
| RRIRMRPPRLPRPRPRPDIMPRP | c3 |
| RRIRLRPPRLPRPRPRPEHIPRP | c3 |
| RRIRLRPPRLPRPRPRPYCEPRP | c1 |
| RRIRPRPPRLPRPRPRPIPQPRP | c1 |

----------
# Tested on: Escherichia coli TOP10;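 also: peptides expressed intracellularly from a pBAD plasmid library in pooled LB shake-flask culture, induced with 0.3% L-arabinose, DNA abundance read by NGS, three biological replicates, DESeq2 with apeglm shrinkage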
# test-method-notes: shrunken log2 fold change of peptide-encoding DNA abundance (4.5 h post-induction vs induction); higher = less antimicrobial activity (less host growth inhibition)
# measurement-parameters: time post-induction: 4.5 h; library: site-saturation at positions 5, 18, 19, 20
As shown below, each of these sequences has a reported shrunken log2 fold change value.

| residue-sequence | shrunken log2 fold change |
| --- | --- |
| RRIRWRPPRLPRPRPRPGLQPRP | 0.0651 |
| RRIRPRPPRLPRPRPRPRQGPRP | 0.236 |
| RRIRIRPPRLPRPRPRPAIHPRP | -0.475 |
| RRIRNRPPRLPRPRPRPTNCPRP | 0.143 |
| RRIRNRPPRLPRPRPRPVNCPRP | -0.147 |
| RRIRQRPPRLPRPRPRPRMEPRP | -0.194 |
| RRIRRRPPRLPRPRPRPFHFPRP | -0.413 |
| RRIRVRPPRLPRPRPRPCFDPRP | -0.121 |
| RRIRFRPPRLPRPRPRPALCPRP | -0.088 |
| RRIRERPPRLPRPRPRPEHGPRP | 0.174 |
| RRIRTRPPRLPRPRPRPAAQPRP | 0.312 |
| RRIRQRPPRLPRPRPRPKSGPRP | 0.631 |
| RRIRVRPPRLPRPRPRPQPDPRP | 0.23 |
| RRIRDRPPRLPRPRPRPVNAPRP | 0.188 |
| RRIRGRPPRLPRPRPRPPLLPRP | 0.633 |

Hello, the source for this data is the supplement of paper PMC9112550, in case you need it.
